Ref: paper PMC2633472

Outcome Measure: IC50

// returns IC50 for C[C@@H](CNCc1ccccc1)N1C[C@H](CCCNC(=N)N)N(CCc2cccc(F)c2)C1=S with Adenosine A1 (Homo sapiens, UniProt P30542); value = > 1000 nM

----------
Protocol Summary: Pharmacokinetics in rats after intravenous administration
Type: in vivo
Condition Info: rat, plasma, 5 mg/kg, plasma elimination half-life (mean value), intravenous, mean
Outcome Measure: half-life (h)
// units = h; emit number, no label

half-life reading for C[C@@H](CNCc1ccccc1)N1C[C@H](CCCNC(=N)N)N(CCc2cccc(F)c2)C1=S : 2.7

----------
System: Adenosine A2A (Homo sapiens, UniProt P29274)
Sequence (P29274 whole entry): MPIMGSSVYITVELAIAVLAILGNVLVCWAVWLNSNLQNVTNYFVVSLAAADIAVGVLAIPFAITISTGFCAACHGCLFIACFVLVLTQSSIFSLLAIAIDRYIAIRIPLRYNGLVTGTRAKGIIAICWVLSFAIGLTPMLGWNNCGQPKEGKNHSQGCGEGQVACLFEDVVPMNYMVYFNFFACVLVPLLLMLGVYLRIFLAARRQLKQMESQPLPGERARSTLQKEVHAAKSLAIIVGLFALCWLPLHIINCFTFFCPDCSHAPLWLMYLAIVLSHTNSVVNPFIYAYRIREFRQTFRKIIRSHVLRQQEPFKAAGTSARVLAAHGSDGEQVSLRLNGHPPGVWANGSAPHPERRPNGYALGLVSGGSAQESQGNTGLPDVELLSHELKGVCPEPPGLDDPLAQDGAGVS
pIC50: −log10 of the molar value.
Outcome Measure: pIC50

For this compound ( C[C@@H](CNCc1ccccc1)N1C[C@H](CCCNC(=N)N)N(CCc2cccc(F)c2)C1=S [TPI 1361-17] ), measured pIC50 is < 6.00

----------
Outcome Measure: IC50 (nM)
Express your answer in nM, writing the number without its unit.

# lookup: C[C@@H](CNCc1ccccc1)N1C[C@H](CCCNC(=N)N)N(CCc2cccc(F)c2)C1=S on rat MCH1 receptor (Rattus norvegicus, UniProt P97639), IC50 = 31.8

----------
Target protein (sequence): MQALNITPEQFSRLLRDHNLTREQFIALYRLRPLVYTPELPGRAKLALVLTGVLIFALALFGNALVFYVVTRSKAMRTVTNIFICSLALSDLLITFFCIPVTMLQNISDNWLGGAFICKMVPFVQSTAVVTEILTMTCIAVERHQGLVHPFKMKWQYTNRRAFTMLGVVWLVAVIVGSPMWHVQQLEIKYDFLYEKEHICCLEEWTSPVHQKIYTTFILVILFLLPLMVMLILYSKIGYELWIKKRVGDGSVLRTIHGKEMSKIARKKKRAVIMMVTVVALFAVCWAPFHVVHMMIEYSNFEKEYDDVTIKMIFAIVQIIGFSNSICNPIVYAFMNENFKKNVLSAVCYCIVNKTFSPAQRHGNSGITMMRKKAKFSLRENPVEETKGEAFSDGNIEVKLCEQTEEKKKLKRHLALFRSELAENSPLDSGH
pIC50: −log10 of the molar value.
Outcome Measure: pIC50

// C[C@@H](CNCc1ccccc1)N1C[C@H](CCCNC(=N)N)N(CCc2cccc(F)c2)C1=S : pIC50 value = < 6.00

----------
System: Adrenergic β1/β2
Protocol Summary: Radioligand displacement
Condition Info: read-out: BINDING Adrenergic β1/β2; displacement of specific radioactive ligand
Outcome Measure: IC50

What the record says about C[C@@H](CNCc1ccccc1)N1C[C@H](CCCNC(=N)N)N(CCc2cccc(F)c2)C1=S : IC50 is > 1000 nM

----------
System: UniProt P14416
Sequence (P14416 1-414 isoform P14416-2): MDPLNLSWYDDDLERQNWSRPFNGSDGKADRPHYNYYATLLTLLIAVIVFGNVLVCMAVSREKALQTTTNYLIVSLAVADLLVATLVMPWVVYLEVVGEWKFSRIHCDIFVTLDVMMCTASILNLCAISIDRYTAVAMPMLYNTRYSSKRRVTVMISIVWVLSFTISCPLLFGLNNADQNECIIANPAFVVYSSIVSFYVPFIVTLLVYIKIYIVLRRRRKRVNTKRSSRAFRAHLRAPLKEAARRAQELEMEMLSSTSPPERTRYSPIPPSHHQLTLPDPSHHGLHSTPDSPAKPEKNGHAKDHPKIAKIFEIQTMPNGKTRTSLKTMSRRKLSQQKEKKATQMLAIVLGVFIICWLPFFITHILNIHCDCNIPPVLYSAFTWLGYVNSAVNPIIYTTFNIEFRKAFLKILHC
Outcome Measure: IC50

GET /value?item= C[C@@H](CNCc1ccccc1)N1C[C@H](CCCNC(=N)N)N(CCc2cccc(F)c2)C1=S &field=IC50 returns > 1000 nM
